test system: SHP77; assay: Antitumor activity against human SHP77 cells after 72 hrs by MTT assay; format: functional, cell-based; details: SHP77, 72 h
EXPERIMENTAL_READOUT: IC50
A complete answer gives the number followed by the unit.

Sample records with IC50:
[
  {
    "STRUCTURE_STRING": "CC(C)=CC(=O)C[C@@H](C)[C@H]1CC[C@@]2(C)[C@@H]3CC[C@H]4[C@](C)(COS(=O)(=O)[O-])[C@@H](OS(=O)(=O)[O-])CC[C@@]45C[C@@]35CC[C@]12C.[Na+].[Na+]",
    "SYSTEM_UNDER_TEST": "SHP77",
    "IC50": "31 µM"
  },
  {
    "STRUCTURE_STRING": "CC(C)C[C@H](O)C[C@@H](C)[C@H]1CC[C@@]2(C)[C@@H]3CC[C@H]4[C@](C)(COS(=O)(=O)[O-])[C@@H](OS(=O)(=O)[O-])CC[C@@]45C[C@@]35CC[C@]12C.[Na+].[Na+]",
    "SYSTEM_UNDER_TEST": "SHP77",
    "IC50": "31 µM"
  },
  {
    "STRUCTURE_STRING": "CC(C)=CC(=O)C[C@@H](C)[C@H]1CC[C@@]2(C)[C@@H]3CC[C@H]4[C@](C)(COS(=O)(=O)[O-])[C@@H](O)CC[C@@]45C[C@@]35CC[C@]12C.[Na+]",
    "SYSTEM_UNDER_TEST": "SHP77",
    "IC50": "6 µM"
  }
]

Using known records, supply IC50 for CC(C)=CC(=O)C[C@@H](C)[C@H]1CC[C@@]2(C)[C@@H]3CC[C@H]4[C@](C)(CO)[C@@H](O)CC[C@@]45C[C@@]35CC[C@]12C 6 µM

Using known records, supply IC50 for CC(C)CC(=O)C[C@@H](C)[C@H]1CC[C@@]2(C)[C@@H]3CC[C@H]4[C@](C)(COS(=O)(=O)[O-])[C@@H](OS(=O)(=O)[O-])CC[C@@]45C[C@@]35CC[C@]12C.[Na+].[Na+] 31 µM

Using known records, supply IC50 for CC(C)CC(=O)C[C@@H](C)[C@H]1CC[C@@]2(C)C3=C(CC[C@]12C)[C@@]1(C)CC[C@H](OS(=O)(=O)[O-])[C@@](C)(COS(=O)(=O)[O-])[C@@H]1CC3.[Na+].[Na+] 31 µM

Using known records, supply IC50 for CC(C)=CC(=O)C[C@@H](C)[C@H]1CC[C@@]2(C)[C@@H]3CC[C@H]4[C@](C)(CO)[C@@H](OS(=O)(=O)[O-])CC[C@@]45C[C@@]35CC[C@]12C.[Na+] 6 µM

src = ChEMBL document CHEMBL1156657
